The entries below come with measured pIC50 values attached.
Molecular target: CETP (Homo sapiens (Human), UniProt P11597)
Assay: Scintillation Proximity Assay (SPA) for CETP Activity
Type: biochemical
Details: 15 nM CETP, biotinylated LDL, 3H-cholesterol ester HDL; read-out: SPA IC50 (CETP Inhibition)
Experimental: Protocol: Scintillation Proximity Assay (SPA) for CETP Activity First, low density lipoprotein (LDL) (Meridian) was biotinylated by incubating LDL with biotin for 1 hour on ice, after which it was dialyzed to remove free biotin. […] The assay was then mixed and counted after one half hour in a Microbeta plate reader.
Sequence (P11597 18-493): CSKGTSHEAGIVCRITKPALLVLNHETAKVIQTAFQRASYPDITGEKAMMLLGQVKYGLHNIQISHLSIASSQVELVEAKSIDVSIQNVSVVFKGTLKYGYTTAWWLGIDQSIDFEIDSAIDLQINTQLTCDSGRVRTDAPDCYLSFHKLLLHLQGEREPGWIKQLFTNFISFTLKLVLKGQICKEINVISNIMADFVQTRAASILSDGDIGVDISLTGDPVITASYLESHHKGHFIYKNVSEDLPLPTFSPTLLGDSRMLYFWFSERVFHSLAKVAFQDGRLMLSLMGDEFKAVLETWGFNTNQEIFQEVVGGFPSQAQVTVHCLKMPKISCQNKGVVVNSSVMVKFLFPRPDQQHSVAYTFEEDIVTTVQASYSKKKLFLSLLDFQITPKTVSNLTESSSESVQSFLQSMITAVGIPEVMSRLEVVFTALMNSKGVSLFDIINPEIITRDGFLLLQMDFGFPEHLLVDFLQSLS
Scale explanation: pIC50 corresponds to minus log10 of a concentration expressed in moles per litre.

// worked examples, pIC50 included
> print(dat)
                                   molecule  metric  readout.number
1  COc1ncc(Cl)cc1-c1cnc(N2CC(F)C2)nc1CN1C(=O)O[C@H](c2cc(F)cc(F)c2)[C@@H]1C [Example 13]   pIC50            6.14
2  COc1ncc(-c2cnn(C)c2)cc1-c1cnc(N2CC(F)C2)nc1CN1C(=O)O[C@H](c2cc(C(F)(F)F)cc(C(F)(F)F)c2)[C@@H]1C [Example 4]   pIC50            6.86

Lab note: next molecule to report on.
### Prompt Query (molecule): COc1ncc(C2CC2)cc1-c1cnc(N2CC(F)C2)nc1CN1C(=O)O[C@H](c2cc(C(F)(F)F)cc(C(F)(F)F)c2)[C@@H]1C [Example 5] ; field requested: pIC50
### Response 7.47

---

molecular target: CETP (Homo sapiens (Human), UniProt P11597); experiment: In vitro radioactive assay of CETP-catalyzed CE and TG transfer (RTA assay), 95% human serum; format: biochemical; conditions: RTA assay in 95% human serum; read-out: RTA IC50 (CETP Inhibition)
Sequence (P11597 18-493 limits assumed): as the sequence (P11597 18-493) above
metric: pIC50
Scale explanation: pIC50 corresponds to minus log10 of a concentration expressed in moles per litre.

> print(dat)
                         structure.notation  readout.number
1  COc1ncc(-c2ccc(C(=O)O)cc2C)cc1-c1ccc(N2CC(F)C2)nc1CN1C(=O)O[C@H](c2cc(C(F)(F)F)cc(C(F)(F)F)c2)[C@@H]1C            8.22
2  COc1ncc(C(C)C)cc1-c1cnc(N2[C@H](C)CC[C@H]2C)nc1CN1C(=O)O[C@H](c2cc(C(F)(F)F)cc(C(F)(F)F)c2)[C@@H]1C            6.37
3  COc1ncc(-c2ccc(C(=O)O)cc2C)cc1-c1cnc(N2CC(F)C2)nc1CN1C(=O)O[C@H](c2cc(C(F)(F)F)cc(C(F)(F)F)c2)[C@@H]1C            7.92
4  COc1ncc(-c2ccc(C(=O)OC(C)(C)C)cc2C)cc1-c1ccc(N2CC(F)(F)C2)nc1CN1C(=O)O[C@H](c2cc(C(F)(F)F)cc(C(F)(F)F)c2)[C@@H]1C            7.82
5  COc1ncc(-c2c(C)cc(C(=O)O)cc2C)cc1-c1cnc(N2CC(F)C2)nc1CN1C(=O)O[C@H](c2cc(F)cc(C(F)(F)F)c2)[C@@H]1C            7.82
6  COc1ncc(-c2ccc(C(=O)Nc3nnn[nH]3)cc2C)cc1-c1cnc(N2CC(F)C2)nc1CN1C(=O)O[C@H](c2cc(C(F)(F)F)cc(C(F)(F)F)c2)[C@@H]1C            8.00

### Prompt Query (molecule): COc1ncc(-c2c(C)cc(C(=O)O)cc2C)cc1-c1cnc(N2CCOCC2)nc1CN1C(=O)O[C@H](c2cc(C(F)(F)F)cc(C(F)(F)F)c2)[C@@H]1C ; field requested: pIC50
### Response 8.00

### Prompt Query (molecule): COc1ncc(-c2sc(C)nc2C)cc1-c1cnc(N2CC(F)C2)nc1CN1C(=O)O[C@H](c2cc(C(F)(F)F)cc(C(F)(F)F)c2)[C@@H]1C ; field requested: pIC50
### Response 8.52

### Prompt Query (molecule): COc1ncc(-c2ccc(C(=O)O)cc2C)cc1-c1cnc(N2CC(F)C2)nc1CN1C(=O)O[C@H](c2cccc(OC(F)(F)F)c2)[C@@H]1C ; field requested: pIC50
### Response 7.30
